Please respond with reported expected percent binding for every item in the list.
# target system: T1, HCV Core1-169 (hepatitis C virus (HCV-1), UniProt P26664 1-169)
# T1 sequence: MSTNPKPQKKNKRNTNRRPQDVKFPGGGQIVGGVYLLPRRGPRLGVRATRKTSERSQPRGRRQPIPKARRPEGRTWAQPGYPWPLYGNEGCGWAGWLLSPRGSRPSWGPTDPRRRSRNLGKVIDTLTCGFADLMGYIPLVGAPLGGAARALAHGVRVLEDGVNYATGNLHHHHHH
# protocol notes: SPR sandwich, capture mAb C11-14

The recorded expected percent binding for entry HCV 208B-822 (antibody, V domains shown) VH: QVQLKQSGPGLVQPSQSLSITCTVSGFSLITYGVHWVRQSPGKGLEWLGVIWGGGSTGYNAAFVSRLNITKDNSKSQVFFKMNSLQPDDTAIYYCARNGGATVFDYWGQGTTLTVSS VL: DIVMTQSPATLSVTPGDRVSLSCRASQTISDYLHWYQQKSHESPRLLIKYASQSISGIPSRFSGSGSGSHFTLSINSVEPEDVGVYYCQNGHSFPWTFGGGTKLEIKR equals ≤ 1%

The recorded expected percent binding for entry HCV 208A-207 (antibody, V domains shown) VH: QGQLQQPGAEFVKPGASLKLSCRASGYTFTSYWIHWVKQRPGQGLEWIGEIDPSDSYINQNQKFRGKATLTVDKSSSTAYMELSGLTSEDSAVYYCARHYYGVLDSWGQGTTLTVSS VL: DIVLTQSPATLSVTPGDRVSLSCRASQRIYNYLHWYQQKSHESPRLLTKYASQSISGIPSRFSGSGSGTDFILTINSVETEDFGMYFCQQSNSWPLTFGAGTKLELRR equals ≤ 1%

The recorded expected percent binding for entry HCV 208B-327 (antibody, V domains shown) VH: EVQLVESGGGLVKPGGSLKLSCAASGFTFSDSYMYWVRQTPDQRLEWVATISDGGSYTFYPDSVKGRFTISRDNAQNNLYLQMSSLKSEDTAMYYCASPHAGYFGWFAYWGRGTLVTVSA VL: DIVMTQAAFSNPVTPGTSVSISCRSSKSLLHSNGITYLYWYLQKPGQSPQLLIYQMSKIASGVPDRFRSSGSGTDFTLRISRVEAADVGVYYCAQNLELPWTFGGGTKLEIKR equals ≤ 1%
